Catalogue of koff values
Target: T1, Polyhistidine-tagged recombinant human GFAP expressed from E. coli (human, UniProt P14136 1-432)
T1 construct: also called His-tagged GFAP; not shown: polyhistidine tag
T1 sequence (P14136 whole entry): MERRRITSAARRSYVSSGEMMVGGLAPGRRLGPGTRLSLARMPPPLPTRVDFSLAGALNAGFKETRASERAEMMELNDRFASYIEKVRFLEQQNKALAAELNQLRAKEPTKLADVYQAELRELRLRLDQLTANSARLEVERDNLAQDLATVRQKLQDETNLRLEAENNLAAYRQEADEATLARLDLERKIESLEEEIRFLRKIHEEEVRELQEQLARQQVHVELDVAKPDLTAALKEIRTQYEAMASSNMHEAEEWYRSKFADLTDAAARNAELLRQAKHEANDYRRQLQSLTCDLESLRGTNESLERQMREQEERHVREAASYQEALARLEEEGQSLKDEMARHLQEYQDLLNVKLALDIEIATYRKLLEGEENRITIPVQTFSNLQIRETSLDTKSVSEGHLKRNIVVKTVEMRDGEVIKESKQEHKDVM
Assay: BLI (Octet QKe); His-tagged GFAP on anti-Penta-HIS sensor, antibody in solution
// units = s⁻¹; emit number, no label

Example results:
GFAP-15 (antibody, V domains shown, also called mouse anti-GFAP antibody GFAP-15) VH: DVQLVESGGGLLEPGGSRKLSCAASGFTFSSFGMHWVRQAPEKGLEWVAYISSGSRTIFYADTVKGRFTISRDNPKNTLFLQMTSLRSGDTAMYYCVRGGYGSSFDYWGQGTTLTVSS VL: DVVMTQTPLSLPVSLGDQASISCRSSQSLVYSNGNIYLHWYLQKPGQSPKLLIYKVSNRFSGVPDRFSGSGSGTDFTLKISRVEAEDLGVYFCSQSTHVPYTFGGGTKLEIK
0.000231
GFAP-10 (antibody, V domains shown, also called mouse anti-GFAP antibody GFAP-10) VH: EVKLVESGGGLVKPGGSLKLSCAASGFTFSYYAMSWVRQTPEKRLEWVASISSGGTTYHPDSVKGRFTISRDNARNILYLQMSSLRSEDTAMYYCARGGHWYFDVWGAGTTVTVSS VL: QIVLTQSPAIMSASPGEKVTMTCSASSSVSYMHWYQQKSGTSPKRWIYDTSKLASGVPARFSGSGSGTSYSLTISSMEAEDAATYYCQQWSTNPLTFGAGTKLDLK
1e-07

Moving on to the next binder.
Need koff of GFAP-6 (antibody, V domains shown, also called mouse anti-GFAP antibody GFAP-6; HRP-labeled anti-GFAP antibody) VH: EVQLQQSGAEFVKPGASVKLSCTASGFNIKDTDMHWVRQRPEQGLESIGLIDPAIGNTKYDPKFQGKATITADTSSNAAYLQLSSLTSEDTAVYYCARSDRYLAWFAYWGQGTLVTVSA VL: DIVMTQSPATLSVTPGDRVSLSCRASQSISDFLHWYQQKSHGSPRLLIKYSSQSISGIPSRFSGSGSGSDFTLSINSVEPEDVGVYYCQNGHTFPYTFGGGTKLEIK , thanks.
0.000124
